Where these numbers come from: ChEMBL document CHEMBL2029272

Kindly state pKi for each of the entries shown.
Molecular target: Muscarinic acetylcholine receptor M2 (Homo sapiens)
Sequence (P08172 whole entry): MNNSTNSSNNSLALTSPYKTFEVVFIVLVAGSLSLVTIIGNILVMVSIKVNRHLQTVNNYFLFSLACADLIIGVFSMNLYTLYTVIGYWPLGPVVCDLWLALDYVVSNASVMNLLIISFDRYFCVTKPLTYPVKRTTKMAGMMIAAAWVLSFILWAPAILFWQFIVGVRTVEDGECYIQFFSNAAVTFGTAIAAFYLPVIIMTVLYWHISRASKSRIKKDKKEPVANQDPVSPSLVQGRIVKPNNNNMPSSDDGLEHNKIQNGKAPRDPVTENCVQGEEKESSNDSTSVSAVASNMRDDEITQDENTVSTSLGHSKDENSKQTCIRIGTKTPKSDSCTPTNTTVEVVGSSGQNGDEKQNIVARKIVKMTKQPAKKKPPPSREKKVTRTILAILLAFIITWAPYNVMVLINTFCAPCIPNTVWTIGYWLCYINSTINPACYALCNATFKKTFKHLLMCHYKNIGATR
// pKi here means minus log10 of the molar concentration (mol/L)

I'd like to know its pKi. The compound in question is C1CCC(CN2C3CCC2CC3)CC1
5.32

I'd like to know its pKi. The compound in question is C1CC2CCC1N2CC12C3C4C5C3C1C5C42 (configuration not stated)
6.16

====

Molecular target: Alpha-2C adrenergic receptor (Homo sapiens)
Sequence (P18825 whole entry): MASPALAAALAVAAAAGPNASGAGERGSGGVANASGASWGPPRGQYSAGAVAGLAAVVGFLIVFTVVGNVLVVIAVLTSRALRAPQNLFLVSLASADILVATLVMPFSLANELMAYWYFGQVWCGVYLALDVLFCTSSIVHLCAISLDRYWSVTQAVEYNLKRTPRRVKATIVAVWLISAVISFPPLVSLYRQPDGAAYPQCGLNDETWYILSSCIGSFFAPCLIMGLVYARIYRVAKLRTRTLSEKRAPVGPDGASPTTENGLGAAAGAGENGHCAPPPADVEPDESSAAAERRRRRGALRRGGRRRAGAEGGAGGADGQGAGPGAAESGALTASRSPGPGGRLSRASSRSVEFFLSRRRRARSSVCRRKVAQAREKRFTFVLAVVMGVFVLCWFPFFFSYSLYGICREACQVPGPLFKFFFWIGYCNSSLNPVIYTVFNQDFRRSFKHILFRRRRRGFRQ
Measurement Label: pKi
// pKi here means minus log10 of the molar concentration (mol/L)

Find pKi (Alpha-2C adrenergic receptor (Homo sapiens)) for the entry C1CC2CCC1N2CC12C3C4C5C3C1C5C42 (stereo unspecified)
5.37

====

Molecular target: Histamine H3 receptor (Homo sapiens)
Sequence (Q9Y5N1 whole entry): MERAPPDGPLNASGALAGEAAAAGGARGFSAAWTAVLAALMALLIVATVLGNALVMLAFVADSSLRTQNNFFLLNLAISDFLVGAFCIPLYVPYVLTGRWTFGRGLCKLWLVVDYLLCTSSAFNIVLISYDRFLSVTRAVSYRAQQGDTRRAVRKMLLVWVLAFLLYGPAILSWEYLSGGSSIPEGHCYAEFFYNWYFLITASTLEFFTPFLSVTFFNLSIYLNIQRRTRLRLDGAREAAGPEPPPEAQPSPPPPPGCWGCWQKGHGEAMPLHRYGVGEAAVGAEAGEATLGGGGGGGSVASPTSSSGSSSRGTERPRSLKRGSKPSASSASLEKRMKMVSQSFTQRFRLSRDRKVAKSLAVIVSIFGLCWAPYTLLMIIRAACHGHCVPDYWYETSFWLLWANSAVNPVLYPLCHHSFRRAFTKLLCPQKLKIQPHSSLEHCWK
Test: Inhibition of H3 receptor at 10 uM
Measurement Label: inhibition

Find inhibition (Histamine H3 receptor (Homo sapiens)) for the entry Fc1cccc(CCCN2C3CCC2CC3)c1
< 50%

Find inhibition (Histamine H3 receptor (Homo sapiens)) for the entry c1ccc(CCN2C3CCC2CC3)nc1
< 50%

Find inhibition (Histamine H3 receptor (Homo sapiens)) for the entry C1CCC(CN2CCCC2)CC1
< 50%

Find inhibition (Histamine H3 receptor (Homo sapiens)) for the entry Fc1cccc(CCN2C3CCC2CC3)c1
< 50%

Find inhibition (Histamine H3 receptor (Homo sapiens)) for the entry c1cncc(CN2C3CCC2CC3)c1
< 50%

Find inhibition (Histamine H3 receptor (Homo sapiens)) for the entry C1CC2CCC1N2CC12C3C4C5C3C1C5C42 (centres undefined)
< 50%

Find inhibition (Histamine H3 receptor (Homo sapiens)) for the entry Fc1cccc(CN2C3CCC2CC3)c1
< 50%

Find inhibition (Histamine H3 receptor (Homo sapiens)) for the entry C1CCC(CN2C3CCC2CC3)CC1
< 50%

Find inhibition (Histamine H3 receptor (Homo sapiens)) for the entry COc1ccc(CN2C3CCC2CC3)cc1OC
< 50%

====

Measurement Label: Ki (µM)
Numbers only; they are read as µM.

Find Ki (Sodium-dependent dopamine transporter (Homo sapiens, UniProt Q01959)) for the entry Fc1cccc(CCN2CCCC2)c1
2.31

Find Ki (Sodium-dependent dopamine transporter (Homo sapiens, UniProt Q01959)) for the entry Fc1cccc(CCCN2CCCC2)c1
3.31

Find Ki (Sodium-dependent dopamine transporter (Homo sapiens, UniProt Q01959)) for the entry c1ccc(CCN2CCCC2)cc1
2.73

====

Target: UniProtKB P20309
Sequence (P20309 whole entry): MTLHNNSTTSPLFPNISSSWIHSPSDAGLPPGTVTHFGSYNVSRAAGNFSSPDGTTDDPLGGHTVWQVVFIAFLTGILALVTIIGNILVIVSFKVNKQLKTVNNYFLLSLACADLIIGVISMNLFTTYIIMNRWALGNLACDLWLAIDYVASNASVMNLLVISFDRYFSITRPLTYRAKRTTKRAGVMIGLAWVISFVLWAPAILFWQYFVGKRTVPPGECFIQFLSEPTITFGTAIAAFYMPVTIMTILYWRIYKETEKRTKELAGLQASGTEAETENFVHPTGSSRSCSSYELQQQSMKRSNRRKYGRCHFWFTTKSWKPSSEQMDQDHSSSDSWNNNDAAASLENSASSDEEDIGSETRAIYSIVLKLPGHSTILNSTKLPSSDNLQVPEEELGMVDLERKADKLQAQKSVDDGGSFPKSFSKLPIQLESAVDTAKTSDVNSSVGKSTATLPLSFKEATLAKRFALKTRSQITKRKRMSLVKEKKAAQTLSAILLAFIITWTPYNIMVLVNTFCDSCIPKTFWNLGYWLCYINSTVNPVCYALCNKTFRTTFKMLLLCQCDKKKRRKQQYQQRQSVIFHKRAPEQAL
Measurement Label: Ki (nM)
Numbers only; they are read as nM.

I'd like to know its Ki. The molecule in question is C1CC2CCC1N2CC12C3C4C5C3C1C5C42 (stereo unspecified)
661

====

Molecular target: UniProt Q9Y5N1
Measurement Label: pKi
// pKi here means minus log10 of the molar concentration (mol/L)

I'd like to know its pKi. The compound in question is c1ccc(CCN2C3CCC2CC3)cc1
5.11

====

Kindly state log10 Ki for each of the entries shown.
Target: Sigma non-opioid intracellular receptor 1 (Rattus norvegicus, UniProt Q9R0C9)
Sequence (Q9R0C9 whole entry): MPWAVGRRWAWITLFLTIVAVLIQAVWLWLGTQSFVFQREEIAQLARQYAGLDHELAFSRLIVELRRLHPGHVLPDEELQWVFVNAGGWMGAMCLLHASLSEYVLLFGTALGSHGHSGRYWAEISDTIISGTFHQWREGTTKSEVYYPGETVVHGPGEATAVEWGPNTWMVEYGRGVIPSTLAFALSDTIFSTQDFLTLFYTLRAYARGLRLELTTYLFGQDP
Experiment: Displacement of [3H](+)-pentazocine from sigma1 receptor in rat brain homogenate
Recorded Ki (log10, nM)

I'd like to know its log10 Ki. The compound in question is C1CC2CCC1N2CC12C3C4C5C3C1C5C42 (configuration not stated)
0.85

I'd like to know its log10 Ki. The compound in question is C1CCC(CN2CCCC2)CC1
1.71

I'd like to know its log10 Ki. The compound in question is c1ccc(CCN2C3CCC2CC3)cc1
2.44

I'd like to know its log10 Ki. The compound in question is C1CCC(CN2C3CCC2CC3)CC1
1.34

I'd like to know its log10 Ki. The compound in question is Fc1cccc(CCCN2C3CCC2CC3)c1
2.08

I'd like to know its log10 Ki. The compound in question is c1ccc(CCN2C3CCC2CC3)nc1
3.58

I'd like to know its log10 Ki. The compound in question is Fc1cccc(CCN2C3CCC2CC3)c1
2.01

====

Kindly state Ki for each of the entries shown.
Molecular target: D(2) dopamine receptor (Homo sapiens, UniProt P14416)
Sequence (P14416 whole entry): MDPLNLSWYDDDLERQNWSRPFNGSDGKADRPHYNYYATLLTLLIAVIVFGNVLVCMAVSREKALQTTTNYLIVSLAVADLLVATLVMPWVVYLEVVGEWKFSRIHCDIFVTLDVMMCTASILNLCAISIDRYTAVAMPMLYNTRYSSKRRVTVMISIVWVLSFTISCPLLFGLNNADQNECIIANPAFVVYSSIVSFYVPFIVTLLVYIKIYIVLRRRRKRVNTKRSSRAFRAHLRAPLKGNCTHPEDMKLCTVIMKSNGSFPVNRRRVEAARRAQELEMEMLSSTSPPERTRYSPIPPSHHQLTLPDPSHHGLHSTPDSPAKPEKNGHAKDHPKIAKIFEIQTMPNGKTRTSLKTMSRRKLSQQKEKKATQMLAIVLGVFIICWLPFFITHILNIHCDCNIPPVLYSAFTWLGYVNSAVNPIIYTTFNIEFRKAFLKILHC
Test: Inhibition of D2 dopamine receptor

I'd like to know its Ki. The compound in question is c1cncc(CN2C3CCC2CC3)c1
> 10 µM

I'd like to know its Ki. The compound in question is Fc1cccc(CCCN2C3CCC2CC3)c1
> 10 µM

I'd like to know its Ki. The compound in question is Fc1cccc(CCN2CCCC2)c1
> 10 µM

I'd like to know its Ki. The compound in question is Fc1cccc(CN2C3CCC2CC3)c1
> 10 µM

I'd like to know its Ki. The compound in question is COc1ccc(CN2C3CCC2CC3)cc1OC
> 10 µM

I'd like to know its Ki. The compound in question is c1ccc(CCN2C3CCC2CC3)cc1
> 1 µM

I'd like to know its Ki. The compound in question is c1ccc(CCN2C3CCC2CC3)nc1
> 10 µM

I'd like to know its Ki. The compound in question is Fc1cccc(CCN2C3CCC2CC3)c1
> 10 µM

I'd like to know its Ki. The compound in question is Fc1cccc(CCCN2CCCC2)c1
9.91 µM

I'd like to know its Ki. The compound in question is c1ccc(CN2C3CCC2CC3)cc1
> 10 µM

I'd like to know its Ki. The compound in question is c1ccc(CCN2CCCC2)nc1
> 10 µM

====

Measurement Label: Ki

Find Ki (D(3) dopamine receptor (Homo sapiens, UniProt P35462)) for the entry C1CC2CCC1N2CC12C3C4C5C3C1C5C42 (stereo unspecified)
> 10 µM

====

Kindly state Ki for each of the entries shown.
Target: Muscarinic acetylcholine receptor M5 (Homo sapiens)
Sequence (P08912 whole entry): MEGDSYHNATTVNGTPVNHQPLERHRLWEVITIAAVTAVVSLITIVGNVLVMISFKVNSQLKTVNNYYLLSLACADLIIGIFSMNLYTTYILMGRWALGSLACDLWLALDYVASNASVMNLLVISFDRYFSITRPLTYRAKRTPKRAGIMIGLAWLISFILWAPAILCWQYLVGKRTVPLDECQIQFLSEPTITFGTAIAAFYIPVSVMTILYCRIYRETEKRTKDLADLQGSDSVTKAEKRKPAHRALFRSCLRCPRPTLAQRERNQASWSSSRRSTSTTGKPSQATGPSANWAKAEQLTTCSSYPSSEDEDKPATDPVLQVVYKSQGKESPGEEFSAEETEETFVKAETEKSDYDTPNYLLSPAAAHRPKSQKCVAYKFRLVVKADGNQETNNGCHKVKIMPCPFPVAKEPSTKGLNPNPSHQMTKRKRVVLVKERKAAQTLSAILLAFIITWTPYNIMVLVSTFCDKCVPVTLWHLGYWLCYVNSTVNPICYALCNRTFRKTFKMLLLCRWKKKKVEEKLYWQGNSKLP
Numbers only; they are read as nM.

I'd like to know its Ki. The compound in question is C1CCC(CN2C3CCC2CC3)CC1
2670

I'd like to know its Ki. The compound in question is C1CCC(CN2CCCC2)CC1
2690

I'd like to know its Ki. The compound in question is C1CC2CCC1N2CC12C3C4C5C3C1C5C42 (stereo not drawn)
802

====

Molecular target: D(1B) dopamine receptor (Homo sapiens)
Sequence (P21918 whole entry): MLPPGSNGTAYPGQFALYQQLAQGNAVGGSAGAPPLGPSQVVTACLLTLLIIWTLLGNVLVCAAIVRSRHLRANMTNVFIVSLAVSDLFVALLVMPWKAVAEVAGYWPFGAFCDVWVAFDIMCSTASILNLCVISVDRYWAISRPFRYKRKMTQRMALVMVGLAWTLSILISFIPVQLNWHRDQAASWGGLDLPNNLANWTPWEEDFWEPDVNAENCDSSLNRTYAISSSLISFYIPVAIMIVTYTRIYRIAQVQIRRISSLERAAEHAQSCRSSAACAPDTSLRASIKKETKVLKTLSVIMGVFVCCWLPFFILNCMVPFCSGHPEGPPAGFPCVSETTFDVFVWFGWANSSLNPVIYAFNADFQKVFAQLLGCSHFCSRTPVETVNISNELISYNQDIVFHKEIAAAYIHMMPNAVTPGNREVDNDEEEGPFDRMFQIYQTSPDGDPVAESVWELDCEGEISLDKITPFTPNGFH
Assay: Inhibition of D5 dopamine receptor
pKi: −log10 of the molar value.
Measurement Label: pKi

I'd like to know its pKi. The molecule in question is C1CCC(CN2CCCC2)CC1
< 5.00

====

Test: Displacement of [3H]DTG from sigma2 receptor in […]
Format: cell-based
Conditions: pc-12
Kindly state log10 of Ki for each of the entries shown.
Recorded Ki (log10, nM)

I'd like to know its log10 of Ki. The compound in question is C1CCC(CN2C3CCC2CC3)CC1
1.26

I'd like to know its log10 of Ki. The compound in question is Fc1cccc(CCCN2CCCC2)c1
1.59

I'd like to know its log10 of Ki. The compound in question is c1ccc(CN2C3CCC2CC3)cc1
2.60

I'd like to know its log10 of Ki. The compound in question is Fc1cccc(CCN2CCCC2)c1
2.39

I'd like to know its log10 of Ki. The compound in question is c1ccc(CCN2C3CCC2CC3)cc1
2.12

I'd like to know its log10 of Ki. The compound in question is c1ccc(CN2CCCC2)cc1
2.93

I'd like to know its log10 of Ki. The compound in question is Fc1cccc(CN2C3CCC2CC3)c1
2.40

I'd like to know its log10 of Ki. The compound in question is C1CCC(CN2CCCC2)CC1
2.61
